- Tested on: SEM cells
- RUN DESCRIPTION: cell viability relative to DMSO control; higher = less cytotoxic
- EXPERIMENTAL PARAMETERS: RPMI 5 mM glucose + 10% FBS; 48 h; 15.4 µM
Listing of entries alongside the reported cell viability.
Lab book: enter the figure in %, no units written.

1. Nc1ncnc2c1nc(Cl)n2[C@@H]1O[C@H](CO)[C@@H](O)[C@H]1O = 55

Indicate its recorded cell viability; the compound in question is O=c1[nH]c(=O)n(C2CCCO2)cc1F (stereo unspecified)
122

Indicate its recorded cell viability; the compound in question is `NC/1=N/C(=O)N(/C=N1)[C@@H]2O[C@H](CO)[C@@H](O)[C@H]2O`
35.3

Indicate its recorded cell viability; the compound in question is COc1cc(C)c(Sc2cnc(NC(=O)c3ccc(CNC(C)C(C)C)cc3)s2)cc1C(=O)N1CCN(C(C)=O)CC1 (stereo unspecified)
43.4

Indicate its recorded cell viability; the compound in question is `CO/N=C(\C(=O)N[C@@H]1C(=O)N2C(C(=O)OCOC(=O)C(C)(C)C)=C(/C=C\c3scnc3C)CS[C@H]12)c1csc(N)n1`
65.2

Indicate its recorded cell viability; the compound in question is `OCc1ccc(-c2ccc(-c3ccc(CO)s3)o2)s1`
61.3

Indicate its recorded cell viability; the compound in question is `CCOc1ccc(Cc2cc([C@@H]3O[C@H](CO)[C@@H](O)[C@H](O)[C@H]3O)ccc2Cl)cc1`
115

* * *

Listing of entries alongside the reported cell viability.
- Test system: SEM cells
- RUN DESCRIPTION: cell viability relative to DMSO control; higher = less cytotoxic
- EXPERIMENTAL PARAMETERS: HPLM + 10% dialyzed FBS; 48 h; 0.00702 µM
Form field: result (number plus unit)

Example results:
1. OC1=CC2=C(C(=C1)O)C(=O)\C(=C(/O2)C3=CC(=C(O)C=C3)O)O = 93.4%
2. CNC(=O)Nc1ccc(-c2nc(N3CC4CCC(C3)O4)c3cnn(C4CCC5(CC4)OCCO5)c3n2)cc1 = 97.8%

Indicate its recorded cell viability; the molecule in question is `O=C(Nc1cccnn1)N1CCC(=Cc2cccc(Oc3ccc(C(F)(F)F)cn3)c2)CC1`
84.4%

Indicate its recorded cell viability; the molecule in question is `c1ccc(-c2oc3ncnc(NC[C@@H]4CCCO4)c3c2-c2ccccc2)cc1`
114%

Indicate its recorded cell viability; the molecule in question is `Cn1cc(C[C@@H](N)C(=O)O)c2ccccc21`
95.8%

* * *

Listing of entries alongside the reported cell viability.
- Test system: P12-Ichikawa
- RUN DESCRIPTION: cell viability relative to DMSO control; higher = less cytotoxic
- EXPERIMENTAL PARAMETERS: HPLM + 10% dialyzed FBS; 48 h; 1.71 µM
Lab book: enter the figure in %, no units written.

Example results:
1. CC1(C)C(N(O)C(=O)Nc2ccc(Cl)cc2)N(c2ccc(Cl)cc2)C(=O)N1CC(=O)N/N=C/C=C/c1ccc([N+](=O)[O-])o1 (stereo not drawn) = 103
2. CC(C)[C@H](N)C(=O)OCCOC[N]1C=NC2=C1\N=C(N)/NC2=O = 131
3. O=C1NC(=O)/C(=C/c2ccc(-c3ccc(F)cc3O)o2)S1 = 107

State cell viability on P12-Ichikawa. Entry: `Cn1cc(C[C@@H](N)C(=O)O)c2ccccc21`
102

State cell viability on P12-Ichikawa. Entry: `CCOc1cc(CC(=O)N[C@@H](CC(C)C)c2ccccc2N2CCCCC2)ccc1C(=O)O`
111
